Target: T1, ZFP SBS#1486 (synthetic)
T1 chain: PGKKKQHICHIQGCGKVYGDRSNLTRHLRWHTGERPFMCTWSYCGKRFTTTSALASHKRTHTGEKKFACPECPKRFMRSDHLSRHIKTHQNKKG
Experiment: EMSA
Conditions: tags: MBP fusion
property_measured: Kd (nM)

binder="GGGTTTGAC (dsDNA) DNA 1: GGGTTTGAC DNA 2: GTCAAACCC" property_measured=Kd reading=0.085
